Target: Cruzipain (Trypanosoma cruzi)
Assay: Inhibition of recombinant Trypanosoma cruzi cruzain at 5 uM using Z-FR-AMC as substrate preincubated for 10 mins followed by substrate addition and measured at 12 sec interval for 5 mins by fluorimetric analysis relative to control
Conditions: time 15.0 min
I'd be grateful if you could share measured inhibition for these entries.
One number for each entry, in %.

Molecule	Numeric Result
COc1ccccc1C(=O)ON=C(N)Cc1cccc2ccccc12	54.9
Nc1ccc(-c2nc3cc(Oc4ccc(Oc5ccc6[nH]c(-c7ccc(N)cc7)nc6c5)cc4)ccc3[nH]2)cc1	91.5
O=C(NC1CCN(Cc2ccccc2)CC1)c1cc(C(=O)NC2CCN(Cc3ccccc3)CC2)cc(C(=O)NC2CCN(Cc3ccccc3)CC2)c1	60.5

Query (molecule): COc1ccc(C2c3ccc4ccccc4c3Oc3ncn(CCCn4ccnc4)c(=N)c32)cc1OC (centres undefined) ; field requested: inhibition
59.5

* * *

Answer each item with its documented inhibition.
Biological target: Rhodesain (Trypanosoma brucei rhodesiense) (UniProt Q95PM0)
Sequence (Q95PM0 1-450): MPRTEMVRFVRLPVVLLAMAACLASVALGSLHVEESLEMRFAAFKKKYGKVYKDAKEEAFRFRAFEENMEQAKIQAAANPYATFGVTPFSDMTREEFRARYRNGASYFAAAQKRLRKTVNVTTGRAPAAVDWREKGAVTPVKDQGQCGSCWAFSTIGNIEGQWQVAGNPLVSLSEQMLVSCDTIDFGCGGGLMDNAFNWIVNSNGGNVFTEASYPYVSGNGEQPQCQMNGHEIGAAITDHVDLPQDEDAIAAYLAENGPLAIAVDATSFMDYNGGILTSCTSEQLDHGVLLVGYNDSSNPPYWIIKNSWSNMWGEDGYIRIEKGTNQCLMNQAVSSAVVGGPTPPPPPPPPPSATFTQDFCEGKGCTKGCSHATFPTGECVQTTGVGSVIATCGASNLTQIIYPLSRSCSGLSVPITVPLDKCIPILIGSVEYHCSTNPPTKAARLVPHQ
Assay: Inhibition of recombinant Trypanosoma brucei rhodesain expressed in Pichia pastoris at 5 uM using Z-FR-AMC as substrate and measured at 12 sec interval for 5 mins without preincubation by fluorimetric analysis relative to control
Numbers only, in %.

For each of the items listed, what is its inhibition?
1. CCOC(=O)c1cnc2ccc(CC)cc2c1O
2. c1ccc(CNc2nc(Nc3ccccc3)nc3ccccc23)cc1
3. COc1ccc(C2c3ccc4ccccc4c3Oc3ncn(CCCn4ccnc4)c(=N)c32)cc1OC (stereo unspecified)
4. Cc1ccc(N2C(=O)C3C(C2=O)C2(c4ccccc4)C(=O)C3(c3ccccc3)C(c3ccccc3)=C2c2ccccc2)cc1 (stereo unspecified)
5. O=C(Nc1ccc(-c2nc3cc(NC(=O)c4ccc(Cl)cc4)ccc3[nH]2)cc1)c1ccc(Cl)cc1
6. Fc1ccc2[nH]c3c(NCCCN4CCOCC4)ncnc3c2c1

[0, 67.1, 33.4, 22.3, 4.6, 17.6]

* * *

Biological target: cathepsin B (Rattus norvegicus, UniProt P00787)
Sequence (P00787 whole entry): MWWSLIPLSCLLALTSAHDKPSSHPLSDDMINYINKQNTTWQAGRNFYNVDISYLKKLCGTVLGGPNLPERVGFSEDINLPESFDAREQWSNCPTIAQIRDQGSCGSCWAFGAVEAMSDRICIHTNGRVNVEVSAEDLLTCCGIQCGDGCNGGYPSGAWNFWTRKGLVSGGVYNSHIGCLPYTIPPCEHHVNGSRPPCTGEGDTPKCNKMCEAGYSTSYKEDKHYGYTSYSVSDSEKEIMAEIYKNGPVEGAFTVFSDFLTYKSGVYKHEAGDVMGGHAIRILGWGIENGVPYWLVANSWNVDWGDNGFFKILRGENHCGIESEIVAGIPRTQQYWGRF
Assay: Inhibition of rat cathepsin B at 100 uM using Z-FR-AMC as substrate measured after 15 mins without preincubation by microplate reader based assay relative to control
Settings: probe Z-FR-AMC
Observable: inhibition at 0.25 h, 100 µM
Write the figure, then the unit, nothing else.

Cn1c(=O)n(C)c2cc(CNCCNc3ccnc4cc(Cl)ccc34)ccc21 9.9%

Then this compound:
# value lookup — system cathepsin B (Rattus norvegicus, UniProt P00787), readout inhibition at 0.25 h, 100 µM, item `Cl.Cl.Clc1cc(Br)ccc1-c1ccc(CNCC2CCNCC2)o1`
1.3%

* * *

Assign inhibition to each entry below.
Biological target: UniProt Q95PM0
Assay: Inhibition of recombinant Trypanosoma brucei rhodesain expressed in Pichia pastoris at 10 uM using Z-FR-AMC as substrate and measured at 12 sec interval for 5 mins without preincubation by fluorimetric analysis relative to control
Give bare numbers, in %.

Please go through the list and note inhibition for each compound.
1. COCCNCC(O)Cn1c2ccc(Cl)cc2c2cc(Cl)ccc21 (centres undefined)
2. c1ccc(CNc2nc(Nc3ccccc3)nc3ccccc23)cc1
3. FC(F)(F)c1cccc(CNC2CCN(CCc3ccccc3)CC2)c1
4. COc1ccc2sc(N(Cc3cccnc3)C(=O)c3ccc(C#N)cc3)nc2c1
5. Cc1cc(Nc2ccc(C)c(Cl)c2)n2nc(C(F)(F)F)nc2n1

1: 14; 2: 14; 3: 1; 4: 10; 5: 5

Each of the following entries comes with a recorded value; kindly state inhibition for each.
1. Cl.Cl.Clc1cc(Br)ccc1-c1ccc(CNCC2CCNCC2)o1
2. Cc1nc2ccccc2c(O)c1CC=C(Cl)Cl

[10, 5]

Could you report inhibition for every entry in the following list?
1. CC(=O)c1ccc(NC(=O)CSc2nc(-c3ccccc3Cl)ns2)cc1
2. Cn1c(=O)n(C)c2cc(CNCCNc3ccnc4cc(Cl)ccc34)ccc21
3. CCOc1cccc(C(=O)Nc2ccc(-c3nc4ccccc4[nH]3)cc2)c1

[10, 10, 46]

Take each entry in turn and give its inhibition.
1. CCOc1ccc(/C=C/c2nc(=O)c3ccccc3o2)cc1
2. CCOC(=O)c1c(C)n(-c2ccccc2)c2ccc(OC(=O)c3cc(OC)c(OC)c(OC)c3)cc12
3. COCCNC(=O)c1ccc(OC2CCN(Cc3ccc(F)c(F)c3)CC2)c(Cl)c1
4. c1ccc(-c2ccc(-c3nc4ccccc4[nH]3)cc2)cc1

[8, 4, 14, 14]

* * *

Molecular target: Rhodesain (Trypanosoma brucei rhodesiense)
Test: Inhibition of recombinant Trypanosoma brucei rhodesain expressed in Pichia pastoris at 5 uM using Z-FR-AMC as substrate preincubated for 10 mins followed by substrate addition and measured at 12 sec interval for 5 mins by fluorimetric analysis relative to control
Conditions: time 15.0 min
Observable: inhibition
Quote the value and follow it with the unit of measurement.

Compound	Result
COc1ccc(C2c3ccc4ccccc4c3Oc3ncn(CCCN(C)C)c(=N)c32)cc1 (stereo not given)	77.8%
Cn1c(=O)c2cc(C(=O)NCCCN3CCCCCC3)sc2c2ccccc21	41.3%
CCc1ccc(Nc2cc(C)c3ccc(O)cc3n2)cc1	38.1%
COc1ccc(NC(=O)C2c3ccccc3C(=O)N(CC(C)C)C2c2cccs2)cc1 (stereo not given)	78.7%
O=C(Nc1cccc(-c2nc3ccccc3[nH]2)c1)c1cccc(NC(=O)c2ccco2)c1	53.9%

Lab note: each compound below needs its inhibition filled in.
1. CCCCCCc1cc2cc(-c3csc(/C=C/c4ccccc4)n3)c(=O)oc2cc1O
2. O=C1c2ccccc2-c2nnc(-c3ccc(Br)cc3)cc21
3. O=C(Nc1ccc(-c2nc3cc(NC(=O)c4ccc(Cl)cc4)ccc3[nH]2)cc1)c1ccc(Cl)cc1
4. Cc1ccc(Nc2nc(-c3ccccn3)cs2)cc1

1. 51.2%
2. 68.8%
3. 56.1%
4. 80.9%

Entry under review: `O=C(CSc1ccc2nnc(-c3cccc(F)c3)n2n1)Nc1ccc2c(c1)OCO2` . Reported inhibition?
61.6%

* * *

Target: cathepsin S (Homo sapiens, UniProt P25774)
Sequence (P25774 whole entry): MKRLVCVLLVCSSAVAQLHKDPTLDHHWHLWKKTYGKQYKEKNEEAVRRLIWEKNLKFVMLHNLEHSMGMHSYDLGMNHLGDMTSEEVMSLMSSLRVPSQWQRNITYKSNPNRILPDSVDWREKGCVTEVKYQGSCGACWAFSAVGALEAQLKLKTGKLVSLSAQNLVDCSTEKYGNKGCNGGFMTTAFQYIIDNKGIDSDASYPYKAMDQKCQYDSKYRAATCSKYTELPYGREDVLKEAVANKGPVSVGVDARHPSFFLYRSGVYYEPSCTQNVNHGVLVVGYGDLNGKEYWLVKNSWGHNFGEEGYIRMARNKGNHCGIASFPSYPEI
Assay: Inhibition of recombinant human cathepsin S expressed in Escherichia coli at 50 uM using Z-VVR-AMC as substrate preincubated for 10 mins followed by substrate addition and measured after 15 mins by microplate reader based assay relative to control
Conditions: probe Z-VVR-AMC, in the assay text read “preincubated for 5 mins” for “preincubated for 10 mins”, time 20 min
Observable: inhibition at 0.25 h, 50 µM (%)
Numbers only, in %.

Please give the measured inhibition at 0.25 h, 50 µM for this molecule: `c1ccc(CNc2nc(Nc3ccccc3)nc3ccccc23)cc1`
4.5

* * *

What inhibition at 0.25 h, 100 µM was measured for each of the following?
Molecular target: cathepsin S (Homo sapiens, UniProt P25774)
Assay: Inhibition of recombinant human cathepsin S expressed in Escherichia coli at 100 uM using Z-VVR-AMC as substrate and measured after 15 mins without preincubation by microplate reader based assay relative to control
Conditions: probe Z-VVR-AMC
Note to self: number, then unit, no commentary.

Cn1c(=O)n(C)c2cc(CNCCNc3ccnc4cc(Cl)ccc34)ccc21 4.7%

Below: the item to evaluate.
I am curious: what inhibition at 0.25 h, 100 µM value has been reported for `Cl.Cl.Clc1cc(Br)ccc1-c1ccc(CNCC2CCNCC2)o1` ?
27.1%

* * *

For each record, write down the corresponding inhibition.
Biological target: Cruzipain (Trypanosoma cruzi) (UniProt P25779)
Sequence (P25779 123-467 limits assumed): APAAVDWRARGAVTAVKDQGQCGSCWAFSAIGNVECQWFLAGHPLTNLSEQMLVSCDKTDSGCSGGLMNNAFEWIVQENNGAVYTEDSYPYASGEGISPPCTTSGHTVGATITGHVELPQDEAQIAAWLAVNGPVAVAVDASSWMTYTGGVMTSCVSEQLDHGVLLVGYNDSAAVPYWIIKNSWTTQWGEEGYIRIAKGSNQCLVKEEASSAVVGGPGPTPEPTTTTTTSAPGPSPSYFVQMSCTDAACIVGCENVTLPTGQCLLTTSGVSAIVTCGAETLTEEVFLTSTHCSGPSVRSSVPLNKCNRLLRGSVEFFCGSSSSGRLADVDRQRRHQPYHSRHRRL
Experiment: Inhibition of recombinant Trypanosoma cruzi cruzain at 100 uM preincubated with enzyme for 5 mins followed by substrate addition in absence of BSA relative to control
Numbers only, in %.

Consider the worked cases shown below.
Compound	Numeric Result
Cl.Cl.Clc1cc(Br)ccc1-c1ccc(CNCC2CCNCC2)o1	86.2
COCCNCC(O)Cn1c2ccc(Cl)cc2c2cc(Cl)ccc21 (centres undefined)	87.9
COCCNC(=O)c1ccc(OC2CCN(Cc3ccc(F)c(F)c3)CC2)c(Cl)c1	79.9

// switching to the query compound
What value of inhibition has been reported for the following compound? `Cn1c(=O)n(C)c2cc(CNCCNc3ccnc4cc(Cl)ccc34)ccc21`
62.1

* * *

Target: Rhodesain (Trypanosoma brucei rhodesiense) (UniProt Q95PM0)
Test: Inhibition of recombinant Trypanosoma brucei rhodesain expressed in Pichia pastoris at 5 uM using Z-FR-AMC as substrate and measured at 12 sec interval for 5 mins without preincubation by fluorimetric analysis relative to control
Please use T whenever inhibition is not below 30%, and F whenever it is.

Solved entries:
Molecule	Experimental System	Class Label
COc1ccc(CNC(=O)c2cc3c(=O)n4ccccc4nc3n(CCc3ccccc3)c2=N)cc1	Rhodesain (Trypanosoma brucei rhodesiense) (UniProt Q95PM0)	T
Cc1ccc(C(=O)c2oc3ccc4c(C)cc(=O)oc4c3c2C)cc1	Rhodesain (Trypanosoma brucei rhodesiense) (UniProt Q95PM0)	T
O=C(CSc1ccc2nnc(-c3cccc(F)c3)n2n1)Nc1ccc2c(c1)OCO2	Rhodesain (Trypanosoma brucei rhodesiense) (UniProt Q95PM0)	F
CC(C)OCc1cc(CN2CCN(c3cccc(Cl)c3)CC2)c(O)c2ncccc12	Rhodesain (Trypanosoma brucei rhodesiense) (UniProt Q95PM0)	F
CCOc1ccccc1CNC(=O)C1c2ccccc2C(=O)N(CC(C)C)C1c1cccs1 (stereo not given)	Rhodesain (Trypanosoma brucei rhodesiense) (UniProt Q95PM0)	T

Could you please find out whether `COCCNC(=O)c1ccc(OC2CCN(Cc3ccc(F)c(F)c3)CC2)c(Cl)c1` has inhibition that meets 30% or exceeds it?
T

inhibition >= 30% for `COc1ccc(/C=C2/SC(Nc3ccc(F)cc3)=NC2=O)c(OC)c1` ?
F

Has `CC(C)(C)c1ccc2c(c1)CN(Cc1ccc(Cl)cc1)CO2` a recorded inhibition greater than or equal to 30%?
F

Check if inhibition >= 30% (inclusive). Item: `O=C1c2ccccc2-c2nnc(-c3ccc(Br)cc3)cc21`
T
